target: Streptavidin (Streptomyces avidinii) (UniProt P22629); test: streptavidin binders on small-molecule microarray, primary screen, artefact control for SMM compound annotation, biophysical, 635/667 nm fluorescence (AID 1147); details: streptavidin binding, higher = more signal;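 note: signal reflects streptavidin binding to arrayed compounds as a control protein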
Sequence (P22629 whole entry, looked up): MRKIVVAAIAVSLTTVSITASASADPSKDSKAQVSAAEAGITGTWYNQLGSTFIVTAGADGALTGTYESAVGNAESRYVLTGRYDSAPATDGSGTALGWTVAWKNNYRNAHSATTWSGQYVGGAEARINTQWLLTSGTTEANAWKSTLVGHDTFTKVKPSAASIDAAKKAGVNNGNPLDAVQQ
experimental_endpoint: composite z-score
Please state the value as a number alone, without comment.

compound	composite z-score
C=C(/C(=C/C[C@H](OC(=O)c1ccncc1)c1cccc(OCCO)c1)c1cnc2ccccc2c1)C(C)C	0.929
O=C1C2C=CC(C(O)c3ccc4c(c3)OCO4)N(Nc3ccccc3)C2C(=O)N1c1ccccc1 (centres undefined)	1.52
COc1ccc(C#Cc2ccc3c(c2)[C@]2(C(=O)N3)[C@H](C(=O)Nc3nc4ccccc4s3)[C@H]3C(=O)O[C@H](c4ccccc4)[C@H](c4ccccc4)N3[C@@H]2c2ccccc2OCCO)cc1	0.689
CC(C)(C)OC(=O)CC[C@]12N=C(c3ccc(OCCCO)cc3)O[C@H]1c1ccccc1N(Cc1ccccc1)C2=O	-0.12

[Q] Name the recorded composite z-score for `COCCCNC(=O)[C@@]1(c2ccc([N+](=O)[O-])cc2)CC(=O)N(CC23CC4CC(CC(C4)C2)C3)[C@@H]1c1ccc(CO)cc1I` .
[A] -0.414

[Q] Consider the compound shown here: `COc1ccc([Si](C)(C)[C@H]2[C@H](CCO)O[C@@]3(C(=O)N(Cc4ccccc4)c4ccc(N5C(=O)c6ccccc6Oc6ccccc65)cc43)[C@@H]2C)cc1` What is its recorded composite z-score?
[A] -0.069

---

Readings of composite z-score for the listed molecules
target: Calmodulin-1 (Homo sapiens) (UniProt P0DP23); assay: calcium-bound CALM1 binders on microarrays, profiling panel, artefact control for SMM control-protein annotation, biochemical, small-molecule microarray, Cy5-labelled CALM1, plus calcium (AID 1112); conditions: Cy5-CALM1 binding fluorescence, higher = more signal;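 note: score merges spot fluorescence with signal to noise from triplicate slides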
Lab note: jot down the number only; don't add units.

cpd_smiles	test_result
COC(=O)[C@@]1(Cc2ccc(F)cc2)[C@H]2c3cc(C(=O)N4CCCC4)n(CC4CC4)c3C[C@H]2CN1C(=O)c1ccccc1	0.701
COc1ccc(C(=O)Nc2cccc(CN3C(=O)[C@]4(O[C@H](CCn5cc([C@H](O)c6ccccc6)nn5)[C@@H]([Si](C)(C)c5ccc(OC)cc5)[C@@H]4C)c4ccccc43)c2)cc1	-0.614
Cc1c(NC(=O)/C(C#N)=C/c2ccccc2Cl)c(=O)n(-c2ccccc2)n1C	-0.154

[Q] Dear colleague, I am looking for the recorded composite z-score of the following molecule: `O=C1O[C@H](c2ccccc2)[C@H](c2ccccc2)N2[C@H]1[C@@H](C(=O)N1CCCCCCC1)[C@]1(C(=O)Nc3ccc(C#CC4(O)CCCCCC4)cc31)[C@H]2c1ccccc1OCCO`
[A] 1.81

[Q] // returns reported composite z-score for input `COCCCNC(=O)[C@@]1(c2ccc([N+](=O)[O-])cc2)CC(=O)N(CC23CC4CC(CC(C4)C2)C3)[C@@H]1c1ccc(CO)cc1I`
[A] 0.729

[Q] Please look up its composite z-score: `CN(C)CCCCCCNC(=O)[C@@H]1C[C@@H]2C(=O)N[C@@H](CCCCN)C(=O)N2[C@@H]1c1ccc(O)cc1`
[A] 0.347

[Q] What does the data say about its composite z-score? Entry: `C=C(C(=O)CC[C@H](OC(=O)c1ccccc1-c1ccccc1C(=O)O)c1ccccc1OCCO)C(C)C`
[A] -0.4

---

experiment: FRG1 promoter luciferase signal modulators, primary screen, FRG1 inhibition for FSHD, cell-based, C2C12 myotubes, firefly/Renilla luciferase, luminescence (AID 1084); settings: higher = more signal, called active from +8 up or from −8 down
Decision: z-score compared against 0.4; not below it gives Met, below it gives Not met.

molecule	class_assignment
COC(=O)C(CC#Cc1ccc2c(c1)[C@]1(C(=O)N2)[C@H](C(=O)Nc2nc3ccccc3s2)[C@H]2C(=O)O[C@H](c3ccccc3)[C@H](c3ccccc3)N2[C@@H]1c1ccc(OCCO)cc1)C(=O)OC	Met
CCCCC=C[C@@H](NC(=O)c1ccccc1)c1ccccc1	Met
O=C1NC(=O)C2C1C=CC(C(O)c1ccccn1)N2Nc1ccc(Cl)cc1Cl (centres undefined)	Not met
COc1ccc(C(=O)Nc2cccc(CN3C(=O)[C@@]4(O[C@@H](CC(=O)N(CCO)Cc5ccccc5)[C@H]([Si](C)(C)c5ccc(OC)cc5)[C@H]4C)c4ccccc43)c2)cc1	Not met
CC(C)C(CO)N1C(=O)[C@@H]2[C@H]3C(=O)OCC=C[C@H]3OC23C=CCN(C(C)(C)C)C(=O)[C@@H]13 (some centres undefined)	Not met
O=C(NCC(O)CO)[C@@]1(CCS(=O)(=O)c2ccccc2)COC(c2ccc(OCCCO)cc2)=N1 (some centres undefined)	Not met
CC(C)CNC(=O)[C@@]1(c2ccc([N+](=O)[O-])cc2)CC(=O)N(C2CCCCC2)[C@@H]1c1ccc(CO)cc1	Not met
O=C1OCCC=C[C@H]2OC34C=CCN(c5ccc(Cl)cc5)C(=O)[C@H]3N(CCCCCCO)C(=O)[C@@H]4C12 (some centres undefined)	Met
COc1cc(CO)cc(I)c1O[C@H]1C=C(C(=O)NCCO)C[C@@H](NCC2CCCCC2)[C@@H]1O	Not met
COCCOC(=O)N1C(=O)[C@@]2(c3cc(C#CCNC(N)=O)ccc31)[C@H](c1ccc(O)cc1)N1[C@H](c3ccccc3)[C@H](c3ccccc3)OC(=O)[C@H]1[C@@H]2C(N)=O	Not met

[Q] State whether the measured z-score reaches 0.4, counting equality as reaching it, for `Cc1nc2cc(Br)ccc2c(=O)n1Cc1cccc(O)c1`
[A] Not met

[Q] Evaluate CC(C)OC(=O)CC(=O)CC(O)c1ccc([N+](=O)[O-])cc1 (centres undefined) : z-score at minimum 0.4?
[A] Met

[Q] Reported z-score at or above 0.4? CCC(CC)C(O)C1C=CC2C(=O)N(c3ccccc3)C(=O)C2N1Nc1ccc([N+](=O)[O-])cc1 (centres undefined)
[A] Not met

[Q] Test whether the molecule CCN(CC)c1ccc(N2CC=CC34O[C@@H]5/C=C\CCC(C)OC(=O)C5[C@H]3C(=O)N(C(C)CO)[C@@H]4C2=O)cc1 (some centres undefined) records z-score of 0.4 or higher.
[A] Not met

[Q] For this molecule, is measured z-score 0.4 or higher? C=CCC(OC(C)=O)[C@@H]1[C@@H](N(Cc2ccc(-c3cccc(C(F)(F)F)c3)o2)C(=O)c2cccc3ccccc23)c2cc(OCCCO)ccc2N1C(=O)Cc1ccc(OC)cc1 (some centres undefined)
[A] Not met

[Q] Please check the record CC(C)CCC[C@@H](C)[C@H]1CC[C@@]2(C)C3=C(CC[C@]12C)[C@@]1(C)CC[C@H](OC(=O)c2ccccc2)C(C)(C)C1CC3 (some centres undefined) and state if its z-score is at or above 0.4.
[A] Not met

[Q] Hi team, for `Nc1cc(Br)ccc1C(=O)O` , is the recorded z-score at or above 0.4?
[A] Not met

---

test system: Wnt5a (protein binding on small-molecule microarray); assay: Wnt5a binders on small-molecule microarray, primary screen, biophysical, 635/667 nm fluorescence (AID 1142); conditions: 635 nm fluorescence, higher = more signal;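 note: fluorescence read at 667 nm with signal to noise per printed feature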
The label depends only on composite z-score: true (1) if it is at least 0.004, false (0) if it is smaller.

Some solved cases for reference:
compound	class_assignment
CC1CC/C=C\[C@H]2OC34C=CCN(C(C)(C)C)C(=O)[C@H]3N(C(CO)C(C)C)C(=O)[C@@H]4C2C(=O)O1 (stereo partly drawn)	true (1)
C=C[C@@H](C)[C@@H](OC(=O)Nc1ccc(SC)cc1)c1ccc(OCCO)cc1	true (1)
NC(=O)[C@@H]1[C@H]2C(=O)O[C@H](c3ccccc3)[C@H](c3ccccc3)N2[C@H](c2ccc(OCCO)cc2)[C@@]12C(=O)Nc1ccc(C#CCCO)cc12	true (1)
COCCOC(=O)N1C(=O)[C@@]2(c3cc(C#CCCO)ccc31)[C@H](c1ccccc1OCCO)N1[C@H](c3ccccc3)[C@H](c3ccccc3)OC(=O)[C@H]1[C@@H]2C(=O)N1CCCCCCC1	true (1)

Now turn to the next compound.
[Q] Textbook exercise: given the entry `O=C(NCCN1CCOCC1)[C@@H]1c2ccccc2C(=O)N(Cc2ccccc2)[C@H]1c1ccc(CO)cc1` , state whether its composite z-score is greater than or equal to 0.004.
[A] false (0)

---

target: Streptavidin (Streptomyces avidinii); assay: streptavidin binders on small-molecule microarray, primary screen, artefact control for SMM compound annotation, biophysical, 635/667 nm fluorescence (AID 1147); settings: streptavidin binding, higher = more signal;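 note: signal reflects streptavidin binding to arrayed compounds as a control protein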
experimental_endpoint: composite z-score
Lab note: write the figure by itself, no unit.

Examples with answers:
compound	assay_system	composite z-score
O=C1O[C@H](c2ccccc2)[C@H](c2ccccc2)N2[C@H]1[C@@H](C(=O)N1CCCCCCC1)[C@]1(C(=O)Nc3ccc(C#CC4(O)CCCCCC4)cc31)[C@H]2c1ccccc1OCCO	Streptavidin (Streptomyces avidinii)	4.02
O=C1C2C=CC(C(O)C=Cc3ccc([N+](=O)[O-])cc3)N(Nc3ccccc3)C2C(=O)N1c1ccccc1 (centres undefined)	Streptavidin (Streptomyces avidinii)	1.53
C=C(C)[C@@H]1CC=C(C(O)C2C=CC3C(=O)N(c4ccccc4)C(=O)C3N2Nc2ccc(C#N)cc2)CC1 (some centres undefined)	Streptavidin (Streptomyces avidinii)	1.48

Next compound, please.
[Q] Param item = `CN(C)C(=O)[C@@]1(Cc2ccccc2N=[N+]=[N-])N=C(c2ccc(OCCCO)cc2)O[C@H]1c1ccccc1` ; retrieve measured composite z-score.
[A] 1.84
